Biological target: recombinantly expressed His-tagged protein corresponding to amino acids 575-869 of human Tyk2 (Homo sapiens)
Construct: made in house
Sequence (P29597 with tags, fused parts or gaps): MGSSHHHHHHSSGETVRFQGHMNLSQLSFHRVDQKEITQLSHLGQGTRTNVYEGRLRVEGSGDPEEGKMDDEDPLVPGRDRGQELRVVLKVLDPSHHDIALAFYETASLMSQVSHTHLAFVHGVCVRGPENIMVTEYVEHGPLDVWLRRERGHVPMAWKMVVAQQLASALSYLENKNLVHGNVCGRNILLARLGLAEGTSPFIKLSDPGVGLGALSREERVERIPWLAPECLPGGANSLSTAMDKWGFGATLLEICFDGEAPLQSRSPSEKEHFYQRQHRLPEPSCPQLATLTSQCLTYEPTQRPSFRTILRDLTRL
Test: Probe displacement assay (scintillation proximity, radiolabeled probe)
Type: binding
The entries below come with measured EC50 values attached.
Give a bare numeral; the unit nM is implied.

Worked examples, 5 compounds total:
CNc1cc(Nc2c[nH]nc2C(=O)Nc2cccnc2)nn2c(C(=O)NC3CC3)cnc12 [Example 33] = 30
[2H]C([2H])([2H])NC(=O)c1nscc1Nc1cc(NC)c2ncc(C(=O)N[C@@H]3C[C@@H]3F)n2n1 [Example 68] = 2.78
CCCNC(=O)c1ncsc1Nc1cc(NC)c2ncc(C(=O)NC3CC3)n2n1 [Example 80] = 20
CNc1cc(Nc2sc(C)nc2C(=O)NC(C)C)nn2c(C(=O)NC3CC3)cnc12 [Example 85] = 26.7
CNc1cc(Nc2ccsc2C(=O)Nc2ccc(F)cc2)nn2c(C(=O)NC3CC3)cnc12 [Example 45] = 20

Entry CNC(=O)c1n[nH]cc1Nc1cc(NC)c2ncc(C(=O)NC3CC3)n2n1 [Example 32] — recorded EC50 = 30

Entry CNc1cc(Nc2cn(C)nc2C(=O)Nc2ccccc2)nn2c(C(=O)N[C@@H]3C[C@@H]3F)cnc12 [Example 15] — recorded EC50 = 9.37

Entry CCn1cc(Nc2cc(NC)c3ncc(C(=O)NC4CC4)n3n2)c(C(=O)Nc2ccccc2)n1 [Example 31] — recorded EC50 = 9.39
